Values from ChEMBL document CHEMBL1138259

# Test: Lipophilicity, log D of the compound
# Type: physicochemical
# Test Context: octanol/water
Endpoint Label: logD

a. CC(C)[C@H](C(=O)NO)N(Cc1ccccc1)S(=O)(=O)c1ccc(OCC[18F])cc1
b. CC(C)[C@H](C(=O)NO)N(Cc1cccnc1)S(=O)(=O)c1ccc(OCC[18F])cc1
Which of these two has the smaller recorded logD: a or b ? Your answer should be the label attached to the chosen record. b

---

# Tested On: Neutrophil collagenase (Homo sapiens)
# Sequence (P22894 whole entry): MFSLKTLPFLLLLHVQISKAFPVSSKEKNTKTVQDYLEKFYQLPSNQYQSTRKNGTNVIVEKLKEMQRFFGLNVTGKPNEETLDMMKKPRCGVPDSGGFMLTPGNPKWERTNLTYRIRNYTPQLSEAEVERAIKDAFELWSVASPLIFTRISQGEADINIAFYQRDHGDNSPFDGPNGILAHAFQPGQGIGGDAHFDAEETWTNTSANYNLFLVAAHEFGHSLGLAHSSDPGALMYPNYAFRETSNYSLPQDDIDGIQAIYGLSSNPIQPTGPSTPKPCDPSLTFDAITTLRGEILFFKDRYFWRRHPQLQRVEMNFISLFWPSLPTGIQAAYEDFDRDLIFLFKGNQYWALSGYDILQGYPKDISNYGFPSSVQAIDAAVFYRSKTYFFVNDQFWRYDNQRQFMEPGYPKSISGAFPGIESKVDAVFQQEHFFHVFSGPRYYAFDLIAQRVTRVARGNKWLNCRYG
# Test: Inhibition of MMP8
pIC50: −log10 of the molar value.
Endpoint Label: pIC50

> print(dat)
                                chem.smiles  endpoint.label  value.measured
1  COc1ccc(S(=O)(=O)N(Cc2ccc(Br)nc2)[C@@H](C(=O)NO)C(C)C)cc1           pIC50            7.70

P. CC(C)[C@H](C(=O)O)N(Cc1ccccc1)S(=O)(=O)c1ccc(N(C)C)cc1
Q. COc1ccc(S(=O)(=O)N(Cc2ccc(F)nc2)[C@@H](C(=O)NO)C(C)C)cc1
R. CC(C)[C@H](C(=O)O)N(Cc1ccccc1)S(=O)(=O)c1ccc(OCCF)cc1
Put the entries in order of pIC50, starting with the largest number. A ranking is expressed here by listing the labels in the requested order. Q, R, P

a. CC(C)[C@H](C(=O)NO)N(Cc1cccnc1)S(=O)(=O)c1ccc(N(C)C)cc1
b. CC(C)[C@H](C(=O)NO)N(Cc1ccccc1)S(=O)(=O)c1ccc(OCCI)cc1
c. COc1ccc(S(=O)(=O)N(Cc2ccc(F)nc2)[C@@H](C(=O)O)C(C)C)cc1
Put the entries in order of pIC50, starting with the largest number. A ranking is expressed here by listing the labels in the requested order. b, a, c
(b: 8.52, a: 5.92, c: 4.66)
